# Assay: Determination of binding constants of inhibitor (NNIC) in Model B detergent, Suc-AAPF-pNA read-out
# Assay type: biochemical
# Conditions: Ki of variant with the mutation relative to variant without the mutation, <1.0 beneficial
Reported Metric: Inhibitor-binding relative Kimutation, inhibitor binding in Model B
The response must contain the number and no unit.

Molecule	Meas Value
S173P, S175P, F180Y, L184Y: TY145 protease (SEQ ID NO 3) variant with these substitutions (protein, listed as Bacillus sp.) AVPSTQTPWGIKSIYNDQSITKTTGGSGIKVAVLDTGVYTSHLDLAGSAEQCKDFTQSNPLVDGSCTDRQGHGTHVAGTVLAHGGSNGQGVYGVAPQAKLWAYKVLGDNGSGYSDDIAAAIRHVADEASRTGSKVVINMSLGSSAKDSLIASAVDYAYGKGVLIVAAAGNSGPGPNTIGYPGGYVNAVAVAALENVQQNGTYRVADFSSRGNPATAGDYIIQERDIEVSAPGASVESTWYTGGYNTISGTSMATPHVAGLAAKIWSANTSLSHSQLRTELQNRAKVYDIKGGIGAGTGDDYASGFGYPRVK	0.24

Consider the record given below.
Incoming: Supply Inhibitor-binding relative Kimutation, inhibitor binding in Model B value. Item: S173P, S175P, N176Y, F180Y: TY145 protease (SEQ ID NO 3) variant with these substitutions (protein, listed as Bacillus sp.) AVPSTQTPWGIKSIYNDQSITKTTGGSGIKVAVLDTGVYTSHLDLAGSAEQCKDFTQSNPLVDGSCTDRQGHGTHVAGTVLAHGGSNGQGVYGVAPQAKLWAYKVLGDNGSGYSDDIAAAIRHVADEASRTGSKVVINMSLGSSAKDSLIASAVDYAYGKGVLIVAAAGNSGPGPYTIGYPGGLVNAVAVAALENVQQNGTYRVADFSSRGNPATAGDYIIQERDIEVSAPGASVESTWYTGGYNTISGTSMATPHVAGLAAKIWSANTSLSHSQLRTELQNRAKVYDIKGGIGAGTGDDYASGFGYPRVK
Outgoing: 0.81
